Listed here are binders together with their documented IC50 activity group, enzyme release assay.
# study_target: T1, human C5aR (CD88) (human, UniProt P21730 1-350)
# T1 sequence (looked up): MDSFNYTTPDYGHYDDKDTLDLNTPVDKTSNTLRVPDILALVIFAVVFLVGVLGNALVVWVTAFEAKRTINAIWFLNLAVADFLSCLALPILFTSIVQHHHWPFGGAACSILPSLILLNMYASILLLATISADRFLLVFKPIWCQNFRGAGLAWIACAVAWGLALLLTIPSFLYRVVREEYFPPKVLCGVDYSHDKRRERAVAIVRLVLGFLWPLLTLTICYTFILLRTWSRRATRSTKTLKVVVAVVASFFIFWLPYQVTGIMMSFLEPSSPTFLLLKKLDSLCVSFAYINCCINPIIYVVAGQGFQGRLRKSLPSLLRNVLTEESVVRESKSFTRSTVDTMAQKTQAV
# assay_overview: cell-based or functional assay
Starred links: 1 amine or outer side, 2 acyl side, 3 side chain; linkers in the order of their positions; H or OH if unused. Positions of bridges follow the written chain, without caps; N, C: chain ends. Non-standard residues stand in square brackets, D forms with d. No end group written: not given here. *: point of attachment. Fbo = morpholine-4-carbonyl, O=C(N1CCOCC1)*; Ebd = Cys(Et), CCSC[C@H](N[*:1])C(=O)[*:2]; dCha = N[C@H](CC1CCCCC1)C(=O)O; dNle = CCCC[C@@H](N)C(=O)O; Eag = 2-Propargylglycine; Nle = CCCC[C@H](N)C(=O)O; Orn = NCCC[C@H](N)C(=O)O; Fbn = not defined here

As a guide, the following entries are already answered.
{HOCH2(CHOH)4‑C═N‑O‑CH2‑CO}-F[Orn]P[dCha]W[Nle] (lactam 2-C) [HOCH2(CHOH)4-C═N-O-CH2-CO-Phe-[Orn-Pro-cha-Trp-Nle]] :: ≤ 200 nM
Fbo-F[Orn]P[dCha]W[Nle] (lactam 2-C (inferred)) [Fbo-Phe-[Orn-Pro-cha-Trp-Nle]] :: ≤ 200 nM
Ac-F[Orn]P[dCha]W[Eag] (lactam (positions not given here); not fully specified (bridges); printed as Ac-Phe-[Orn-Pro-cha-Trp-Eag]) [Ac-Phe-[Orn-Pro-cha-Trp-Eag]] :: ≤ 10 nM
Fbn-F[Orn]P[dCha]W[Nle] (lactam 2-C; reading uncertain; also: printed as Fbn-Phe-[Orn-Pro-cha-Trp-Nle]) [Fbn-Phe-[Orn-Pro-cha-Trp-Nle]] :: ≤ 200 nM

Find the recorded IC50 activity group, enzyme release assay belonging to Ac-KF[Orn]P[dCha]W[Nle] (lactam 3-C; SMILES CCCC[C@@H]1NC(=O)[C@H](Cc2c[nH]c3ccccc23)NC(=O)[C@@H](CC2CCCCC2)NC(=O)[C@@H]2CCCN2C(=O)[C@@H](NC(=O)[C@H](Cc2ccccc2)NC(=O)[C@H](CCCCN)NC(C)=O)CCCNC1=O) [Ac-Lys-Phe-[Orn-Pro-cha-Trp-Nle]] and report it.
≤ 50 nM

Please report the recorded IC50 activity group, enzyme release assay for Ac-F[Orn]P[dCha]WF (lactam (positions not given here); not fully specified (bridges); printed as Ac-Phe-[Orn-Pro-cha-Trp-Phe]) [Ac-Phe-[Orn-Pro-cha-Trp-Phe]] .
≤ 50 nM

# get_value(readout='IC50 activity group, enzyme release assay', item= Ac-F[Orn]P[dCha]W[Ebd] (lactam (positions not given here); not fully specified (bridges); printed as Ac-Phe-[Orn-Pro-cha-Trp-Ebd]) [Ac-Phe-[Orn-Pro-cha-Trp-Ebd]] )
≤ 50 nM

What does the data say about its IC50 activity group, enzyme release assay? Entry: FXPXWX (not fully specified; Ac-; Orn2; cha4 (D); Eew6; cyclic [2-6]) [Ac-Phe-[Orn-Pro-cha-Trp-Eew]]
≤ 2000 nM

I would be grateful if you could share the reported IC50 activity group, enzyme release assay for Ac-F[Orn]P[dCha]W[dNle] (lactam 2-C (inferred)) [Ac-Phe-[Orn-Pro-cha-Trp-nle]] .
≤ 200 nM

// provenance: patent US7727960B2
